Measured CC50 at 6 days of individual entries
test: Cytotoxicity determination in HepG2.2.15 cells (CCK-8 cell viability); assay type: cell-based; settings: human, 6 days treatment, CCK-8 assay, highest concentration 100 uM

MOLECULE	OP	CC50 at 6 days, µM
CCOC(=O)C1=C(CN2CC(F)(F)[C@H]3[C@@H]2CC(C)N3CCC(C)(C)C(=O)O)NC(c2nccs2)=N[C@H]1c1cccc(F)c1C (single isomer, unassigned) [Compound 153]	=	21.8
CCOC(=O)C1=C(CN2CC(F)(F)[C@H]3[C@@H]2CCN3CC(=O)O)NC(c2nccs2)=N[C@H]1c1cccc(F)c1C (single isomer, unassigned) [Compound 6B]	=	34.7
CCOC(=O)C1=C(CN2CC(F)(F)[C@@H]3[C@H]2CON3CCC(C)(C)C(=O)O)NC(c2nccs2)=N[C@@H]1c1ccc(F)c(F)c1C (single isomer, unassigned) [Compound 164]	>	25

---

Assay: Cytotoxicity determination in HepG2.2.15 cells (CCK-8 cell viability)
Type: cell-based
Conditions: human, 6 days treatment, CCK-8 assay, highest concentration 100 uM
Procedure: HepG2.2.15 (the HepG2.2.15 cell line can be produced by transfection of the HepG2 cell line as described in Sells, Chen, and Acs 1987 (Proc. Natl. Acad. Sci. USA 84: 1005-1009), and the HepG2 cell line is available from ATCC® under number HIB-8065™) […] Cell viability was determined by CCK-8 assay. […] The absorbance at 450 nm wavelength and the absorbance at 630 nm wavelength as reference was measured. 2) DATA Analysis EC50 and CC50 values are calculated by the GRAPTIPAD PRISM software.
Measured CC50 at 6 days of individual entries
MEASURED_ATTRIBUTE: CC50 at 6 days (µM)

COMPOUND	ENDPOINT_RESULT
COC(=O)C1=C(CN2CC(F)(F)[C@@H]3[C@H]2CN(C)N3CCC(C)(C)C(=O)O)NC(c2nccs2)=N[C@H]1c1ccc(F)c(F)c1Cl (single isomer, unassigned) [Compound 95]	8.2
COC(=O)C1=C(CN2CC(F)(F)[C@H]3[C@@H]2CCN3C[C@H](C)C(=O)O)NC(c2nccs2)=N[C@H]1c1cccc(F)c1Cl (single isomer, unassigned) [Compound 132B]	71.8
CCOC(=O)C1=C(CN2CC(F)(F)[C@H]3[C@@H]2CCN3CC[C@H]2C[C@@H](C(=O)O)C2)NC(c2nccs2)=N[C@H]1c1cccc(F)c1C (single isomer, unassigned) [Compound 129A]	10.3
CCOC(=O)C1=C(CN2CC(F)(F)[C@@H]3[C@H]2CON3CCC(C)(C)C(=O)O)NC(c2nccs2)=N[C@H]1c1ccc(F)c(F)c1Cl (single isomer, unassigned) [Compound 163]	45.6
CCOC(=O)C1=C(CN2CC(F)(F)[C@H]3[C@@H]2CCN3C(C)=O)NC(c2nccs2)=N[C@H]1c1cccc(F)c1C (single isomer, unassigned) [Compound 61]	21.5

---

test system: HBV; assay: Anti-HBV activity in HepG2.2.15 cells (HBV DNA in culture medium by qPCR); format: cell-based; conditions: Hepatitis B virus, HepG2.2.15, 144 h, HepG2.2.15 cells, 6 days treatment, HBV DNA in culture medium quantified by real-time PCR; read-out: EC50
Values of EC50 strictly less than 8 nM map to 1.0, and values of at least 8 nM map to 0.0.

COMPOUND	CLASSIFICATION
CCOC(=O)C1=C(CN2CC(F)(F)[C@@H]3[C@H]2CON3CCC(C)(C)C(=O)O)NC(c2nccs2)=N[C@H]1c1ccc(F)cc1Cl (single isomer, unassigned)	1.0
CCOC(=O)C1=C(CN2CC(F)(F)[C@H]3[C@@H]2CC(=O)N3[C@H]2CC[C@H](C(=O)O)CC2)NC(c2nccs2)=N[C@H]1c1cccc(F)c1C (single isomer, unassigned) [Compound 158B]	0.0
COC(=O)C1=C(CN2CC[C@]3(F)C(=O)N(CC(C)(C)C(=O)O)C[C@H]23)NC(c2nccs2)=N[C@H]1c1ccc(F)c(F)c1Cl (single isomer, unassigned) [Compound 209A]	0.0
CCOC(=O)C1=C(CN2CC(F)(F)[C@H]3[C@@H]2CC(=O)N3[C@H]2CC[C@@H](C(=O)O)CC2)NC(c2nccs2)=N[C@H]1c1cccc(F)c1C (single isomer, unassigned) [Compound 158A]	0.0
CCOC(=O)C1=C(CN2CC(F)(F)[C@@H]3CN(C4(C(=O)O)CC4)C[C@@H]32)NC(c2nccs2)=N[C@H]1c1cccc(F)c1C (single isomer, unassigned)	1.0
CCOC(=O)C1=C(CN2CC(F)(F)[C@H]3CN(C(C)C(=O)O)C[C@H]32)NC(c2nccs2)=N[C@H]1c1cccc(F)c1C (single isomer, unassigned) [Compound 14B]	0.0
CCOC(=O)C1=C(CN2C[C@H](F)[C@H]3[C@@H]2CCN3CC(C)(C)C(=O)O)NC(c2nccs2)=N[C@H]1c1cccc(F)c1C (single isomer, unassigned) [Compound 11B]	0.0
CCOC(=O)C1=C(CN2CC[C@]3(F)CN(CC(C)(C)C(=O)O)C(=O)[C@H]23)NC(c2nccs2)=N[C@H]1c1cccc(F)c1C (single isomer, unassigned) [Compound 24A]	0.0

---

system: HBV; test: Anti-HBV activity in HepG2.2.15 cells (HBV DNA in culture medium by qPCR); assay type: cell-based; conditions: Hepatitis B virus, HepG2.2.15, 144 h, HepG2.2.15 cells, 6 days treatment, HBV DNA in culture medium quantified by real-time PCR; read-out: EC50
pEC50: −log10 of the molar value.

COMPOUND	OP	pEC50
CCOC(=O)C1=C(CN2CC(F)(F)[C@@H]3[C@H]2CCN3CC(=O)O)NC(c2nccs2)=N[C@H]1c1cccc(F)c1C (single isomer, unassigned)	=	8.44
CCOC(=O)C1=C(CN2CC(F)(F)[C@@H]3[C@H]2CN(C(N)=O)N3CCC(C)(C)C(=O)O)NC(c2nccs2)=N[C@H]1c1cccc(F)c1C (single isomer, unassigned) [Compound 76A]	=	7.96
COC(=O)C1=C(CN2CC(F)(F)[C@@H]3CN(C(=O)C(C)(C)C(=O)O)C[C@@H]32)NC(c2nccs2)=N[C@H]1c1ccc(F)cc1Cl (single isomer, unassigned)	=	7.54
COC(=O)C1=C(CN2CC(F)(F)[C@@H]3[C@H]2CON3CCC(C)(C)C(=O)O)NC(c2nccs2)=N[C@H]1c1cccc(F)c1Cl (single isomer, unassigned)	=	8.10
CCOC(=O)C1=C(CN2CC(F)(F)[C@H]3[C@@H]2CCN3CCC(C)C(=O)O)NC(c2nccs2)=N[C@H]1c1cccc(F)c1C (single isomer, unassigned)	>	9.30
CCOC(=O)C1=C(CN2CC(F)(F)C3CN(CC(C)(C)C(=O)O)C(=O)C32)NC(c2nccs2)=N[C@H]1c1cccc(F)c1C (stereo partly shown)	=	8.08
CCOC(=O)C1=C(CN2CC(F)(F)C3[C@@H]2CCN3[C@H]2C[C@](C)(C(=O)O)C2)NC(c2nccs2)=N[C@H]1c1cccc(F)c1C (single isomer, unassigned) [Compound 112A]	=	8.34
CCOC(=O)C1=C(CN2CC(F)(F)[C@H]3[C@@H]2CCN3CC(C)(C)C(=O)NS(C)(=O)=O)NC(c2nccs2)=N[C@H]1c1cccc(F)c1C (single isomer, unassigned)	>	9.00
CCOC(=O)C1=C(CN2CC(F)(F)[C@@H]3C(=O)N(c4ccn(CCC(C)(C)C(=O)O)n4)C[C@@H]32)NC(c2nccs2)=N[C@H]1c1cccc(F)c1C (single isomer, unassigned)	=	7.09
CCOC(=O)C1=C(CN2CC(F)(F)C3C(=O)N(C(=O)CC(C)(C)C(=O)O)C[C@@H]32)NC(c2nccs2)=N[C@H]1c1cccc(F)c1C (single isomer, unassigned)	=	8.37
COC(=O)C1=C(CN2CC(F)(F)[C@H]3[C@@H]2CCN3CCC(C)(C)C(=O)O)NC(c2nccs2)=N[C@H]1c1ccc(F)cc1Cl (single isomer, unassigned)	=	8.80
CCOC(=O)C1=C(CN2CC(F)(F)[C@@H]3C(=O)N(C4(C(=O)O)CC4)C[C@@H]32)NC(c2nccs2)=N[C@H]1c1cccc(F)c1C (single isomer, unassigned)	=	7.02
CCOC(=O)C1=C(CN2CC(F)(F)[C@@H]3CN(S(=O)(=O)CC(C)(C)C(=O)O)C[C@@H]32)NC(c2nccs2)=N[C@H]1c1cccc(F)c1C (single isomer, unassigned)	=	7.40
COC(=O)C1=C(CN2CC(F)(F)[C@@H]3[C@H]2CON3CCC(C)(C)C(=O)O)NC(c2nccs2)=N[C@H]1c1cccc(F)c1F (single isomer, unassigned)	=	7.79
CCOC(=O)C1=C(CN2CC(F)(F)[C@@H]3[C@H]2CN(C(C)C)N3CCC(C)(C)C(=O)O)NC(c2nccs2)=N[C@H]1c1cccc(F)c1C (single isomer, unassigned)	=	7.22
CCOC(=O)C1=C(CN2CC(F)(F)[C@H]3[C@@H]2CCN3C[C@H]2C[C@H](C(=O)O)C2)NC(c2nccs2)=N[C@H]1c1cccc(F)c1C (single isomer, unassigned) [Compound 143A]	=	8.96
[2H]C([2H])(CC(C)(C)C(=O)O)N1CC[C@H]2[C@@H]1C(F)(F)CN2CC1=C(C(=O)OCC)[C@H](c2cccc(F)c2C)N=C(c2nccs2)N1 (single isomer, unassigned)	=	9.00
CCOC(=O)C1=C(CN2CC(F)(F)[C@H]3[C@@H]2CCN3[C@@H](C)C(=O)O)NC(c2nccs2)=N[C@H]1c1cccc(F)c1C (single isomer, unassigned) [Compound 26F]	=	7.83
CCOC(=O)C1=C(CN2CC(F)(F)[C@H]3[C@@H]2CCN3CCOC(C)C(=O)O)NC(c2nccs2)=N[C@H]1c1cccc(F)c1C (single isomer, unassigned)	=	8.14
